- assay_info: qHTS assay for measurement of the activity of small molecule inhibitors on Zika virus induced Caspase-3 activity in human astrocytoma cells (AID 1224859)
- test_settings: SNB-19 ZIKV-induced caspase-3/7, luminescence, 6 h; series mostly up to 45.7 µM
The source made the active and inactive calls. Calls come from the whole dose curve; as a rule, active = well fitted inhibition curve with a large enough effect; inconclusive = small, poorly fitted or top-dose-only effect; inactive = no such curve, though single readings can be large or run the other way.
metric: outcome

Sample records with outcome:
compound	metric	measured_result
COc1cc2c(cc1OC)CN(CCc1ccc(NC(=O)c3cccc4c(=O)c5cccc(OC)c5[nH]c34)cc1)CC2	outcome	inactive
CC(C=CC1=C(C)CCCC1(C)C)=CC=CC(C)=CC(=O)O	outcome	inactive
CC(C)(Sc1ccc(CCN(CCCCC2CCCCC2)C(=O)NC2CCCCC2)cc1)C(=O)O	outcome	inactive
Cc1cc(-c2ccc(CC(=O)Nc3ccc(-c4cccnc4)cc3)cc2)ccn1	outcome	inactive
Cc1c(C)c2c(c(C)c1O)CCC(C)(COc1ccc(CC3SC(=O)NC3=O)cc1)O2 (stereo not given)	outcome	inactive

Identify measured outcome associated with CNC(=O)c1ccc(N2C(=S)N(c3ccc(C#N)c(C(F)(F)F)c3)C(=O)C2(C)C)cc1F
inactive

Identify measured outcome associated with c1ccc(-c2nn3c(c2-c2ccnc4cc(OCCN5CCOCC5)ccc24)CCC3)nc1
inactive

Identify measured outcome associated with CN1CCN(CCCN2c3ccccc3Sc3ccc(C(F)(F)F)cc32)CC1
inactive

Identify measured outcome associated with Cc1cc2c(F)c(Oc3ncnn4cc(OC[C@@H](C)O)c(C)c34)ccc2[nH]1
inactive

Identify measured outcome associated with Cc1cc(Nc2nc(N[C@@H](C)c3ncc(F)cn3)ncc2Cl)n[nH]1
inactive

Identify measured outcome associated with CS(=O)(=O)Oc1ccc2c(NC(N)=O)c(C(=O)c3ccc(Cl)cc3Cl)oc2c1
inactive

Identify measured outcome associated with Nc1ccc(S(=O)(=O)Nc2ccnn2-c2ccccc2)cc1
inactive
